- assayed-target: viral NA of TKY Wild-type (Influenza A virus (A/turkey/Minnesota/833/1980(H4N2)), UniProt Q20NP0)
- Sequence (Q20NP0 whole entry, looked up): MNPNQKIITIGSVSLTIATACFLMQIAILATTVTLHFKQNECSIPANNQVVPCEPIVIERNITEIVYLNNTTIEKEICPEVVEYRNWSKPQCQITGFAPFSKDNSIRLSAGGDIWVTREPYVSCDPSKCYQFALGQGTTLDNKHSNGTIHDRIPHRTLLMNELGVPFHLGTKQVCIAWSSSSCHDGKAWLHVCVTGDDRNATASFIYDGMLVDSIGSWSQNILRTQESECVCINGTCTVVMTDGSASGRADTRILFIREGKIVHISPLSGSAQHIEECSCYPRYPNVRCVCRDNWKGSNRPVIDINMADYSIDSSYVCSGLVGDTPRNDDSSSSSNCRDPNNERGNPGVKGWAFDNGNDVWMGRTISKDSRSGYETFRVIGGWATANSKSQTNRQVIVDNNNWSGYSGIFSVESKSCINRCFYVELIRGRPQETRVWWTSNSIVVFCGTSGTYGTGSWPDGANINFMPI
- Assay type: biochemical
- particulars: read-out: Ki (nM, based on ZA) Wild-type
measured-property: Ki (nM)
Answers are plain numbers, in nM.

IN: Give reported Ki value for "CC(=O)N[C@H]1[C@H]([C@H](O)[C@H](O)CO)OC(C(=O)O)=C[C@@H]1N=C(N)N"
OUT: 5.3
